B1: LCOR (parent)
chain: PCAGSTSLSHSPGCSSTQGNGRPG

variants of: B1; assay: protein stability index of a GFP-peptide fusion (GPS, HEK-293T) (PSI 1-6); higher = more stable; conditions: c terminus: a fixed tail appended;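 also: lentivirally expressed fusions sorted by FACS into six bins by GFP to DsRed ratio, PSI derived from sequencing read proportions per bin multiplied by bin number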
Below: a set of entries, each annotated with reported protein stability index.
ASSAY_ENDPOINT: protein stability index

1) R22H | 3.96
2) P12A | 3.99
3) R22Q | 3.98
